Where do the numbers come from? From patent US20230391741A1.

- ASSAY_NOTES: Plasma pharmacokinetics after intraperitoneal injection in mouse (UPLC-MS/MS)
- Assay type: in vivo
- APPLIED_CONDITIONS: male, ICR, mouse, plasma, ip, 10 mg/kg, IP 10 mg/kg, 0.5 h; read-out: Plasma concentration, Mean
MEASURED_QUANTITY: concentration at 0.5 h (ng/mL)

[A] CC1(C)O[C@]23C[C@H]1CC[C@]2(C)CCC=C3CCCC(F)(F)F
[B] CCCCC1=CCC[C@@]2(C)CC[C@@H]3C[C@]12OC3(C)C [BAF, 4-butyl-α-agarofuran, reference compound]
Looking only at measured concentration at 0.5 h, which entry is lower, A or B ? Please respond with the label that marks your chosen entry.
B

====

- ASSAY_NOTES: Plasma pharmacokinetics after intraperitoneal injection in mouse (UPLC-MS/MS)
- Type: in vivo
- APPLIED_CONDITIONS: male, ICR, plasma; mouse, IP 10 mg/kg
MEASURED_QUANTITY: half-life (min)

COMPOUND	MEASURED_QUANTITY	REPORTED
CC1(C)O[C@]23C[C@H]1CC[C@]2(C)CCC=C3CCCCC(F)(F)F [Compound 6]	half-life	83.4
CCCCC1=CCC[C@@]2(C)CC[C@@H]3C[C@]12OC3(C)C [BAF, 4-butyl-α-agarofuran, reference compound]	half-life	77.4
[2H]C1[C@H]2CC[C@]3(C)CC([2H])([2H])C=C(CCCC(F)(F)F)[C@@]13OC2(C)C (stereo partly shown) [Compound 8]	half-life	84.6
CC1(C)O[C@]23C[C@H]1CC[C@]2(C)CCC=C3CCCC(F)(F)F [Compound 2]	half-life	96.6

====

- ASSAY_NOTES: Plasma pharmacokinetics after intraperitoneal injection in mouse (UPLC-MS/MS)
- Format: in vivo
- APPLIED_CONDITIONS: male, ICR; mouse plasma, prototype drug, IP 10 mg/kg
MEASURED_QUANTITY: Cmax (ng/mL)

COMPOUND	Cmax [ng/mL]
[2H]C1[C@H]2CC[C@]3(C)CC([2H])([2H])C=C(CCCC(F)(F)F)[C@@]13OC2(C)C (stereo partly shown)	350
CC1(C)O[C@]23C[C@H]1CC[C@]2(C)CCC=C3CCCCC(F)(F)F	342

[a] CCCCC1=CCC[C@@]2(C)CC[C@@H]3C[C@]12OC3(C)C [BAF, 4-butyl-α-agarofuran, reference compound]
[b] CC1(C)O[C@]23C[C@H]1CC[C@]2(C)CCC=C3CCCC(F)(F)F
Given the listed records, identify the one among a and b with higher Cmax. Please respond with the label that marks your chosen entry.
b

====

- ASSAY_NOTES: Plasma pharmacokinetics after intraperitoneal injection in mouse (UPLC-MS/MS)
- Format: in vivo
- APPLIED_CONDITIONS: male, ICR, mouse, plasma, ip, 10 mg/kg, IP 10 mg/kg, 5 min; read-out: Plasma concentration, Mean
MEASURED_QUANTITY: concentration at 5 min (ng/mL)

[I] CCCCC1=CCC[C@@]2(C)CC[C@@H]3C[C@]12OC3(C)C [BAF, 4-butyl-α-agarofuran, reference compound]
[II] CC1(C)O[C@]23C[C@H]1CC[C@]2(C)CCC=C3CCCC(F)(F)F
Looking only at measured concentration at 5 min, which entry is lower, I or II ? Please respond with the label that marks your chosen entry.
I
